# System: Candida albicans
# ASSAY OVERVIEW: Antifungal activity against fluconazole/ITC-resistant Candida albicans ATCC 90819 measured after 48 hrs by CLSI M27-A3 protocol based method
# Format: functional
# MEASUREMENT CONDITIONS: Candida albicans, ATCC 90819, 48 h; read-out: MIC
ASSAY ENDPOINT: MIC (µM)
Answers are plain numbers, in µM.

COMPOUND: CCCCCCCCCCCCCCNCC(O)(Cn1cncn1)c1ccc(F)cc1F (centres undefined)
ENDPOINT UNIT: µM
REPORTED RESULT: 17.3

Report MIC for every entry below.
1. CCCCCCCCNCC(O)(Cn1cncn1)c1ccc(F)cc1F (centres undefined)
2. CCCCCCCCCCCCNCC(O)(Cn1cncn1)c1ccc(F)cc1F (centres undefined)
3. CCCCCCCCN(CCCCCCCC)CC(O)(Cn1cncn1)c1ccc(F)cc1F (centres undefined)
4. C[C@@H]1[C@H](O)[C@@H](C)/C=C/C=C/C=C/C=C/C=C/C=C/C=C/[C@H](O[C@@H]2O[C@H](C)[C@@H](O)[C@H](N)[C@@H]2O)C[C@@H]2O[C@](O)(C[C@@H](O)C[C@@H](O)[C@H](O)CC[C@@H](O)C[C@@H](O)CC(=O)O[C@H]1C)C[C@H](O)[C@H]2C(=O)O [AMPHOTERICIN B]
5. CC(C)c1ccc(NCC(O)(Cn2cncn2)c2ccc(F)cc2F)cc1 (centres undefined)
6. OCCCCCCNCC(O)(Cn1cncn1)c1ccc(F)cc1F (centres undefined)
7. CCCCCOCCCCCCNCC(O)(Cn1cncn1)c1ccc(F)cc1F (centres undefined)
8. CCCCCCCCCCNCC(O)(Cn1cncn1)c1ccc(F)cc1F (centres undefined)

Result:
21.3
4.6
65.4
1.1
84
88.3
9.2
9.9

Could you tell me MIC for each of these compounds? They are listed below.
1. CCCCCCNCC(O)(Cn1cncn1)c1ccc(F)cc1F (centres undefined)
2. CCCCCCCCCCCCCCCCNCC(O)(Cn1cncn1)c1ccc(F)cc1F (centres undefined)
3. CC[C@H](C)C[C@H](C)CCCCCCCCC(=O)N[C@H]1C[C@@H](O)[C@@H](NCCN)NC(=O)[C@@H]2[C@@H](O)CCN2C(=O)[C@H]([C@H](O)CCN)NC(=O)[C@H]([C@H](O)[C@@H](O)c2ccc(O)cc2)NC(=O)[C@@H]2C[C@@H](O)CN2C(=O)[C@H]([C@@H](C)O)NC1=O [CASPOFUNGIN]
4. OC(CNC1CCCCCCC1)(Cn1cncn1)c1ccc(F)cc1F (centres undefined)

Result:
[92.3, 65.4, 0.1, 85.8]
